molecular target: CSF1R (Homo sapiens, UniProt P07333); experiment: Cellular CSF1R inhibition ELISA (p-CSF1R, M-CSF-induced) using THP-1 cells; format: cell-based; parameters: THP-1 cells act as a model for human monocytes; endogenous in cells; host or cells: THP-1
Sequence (P07333 20-972): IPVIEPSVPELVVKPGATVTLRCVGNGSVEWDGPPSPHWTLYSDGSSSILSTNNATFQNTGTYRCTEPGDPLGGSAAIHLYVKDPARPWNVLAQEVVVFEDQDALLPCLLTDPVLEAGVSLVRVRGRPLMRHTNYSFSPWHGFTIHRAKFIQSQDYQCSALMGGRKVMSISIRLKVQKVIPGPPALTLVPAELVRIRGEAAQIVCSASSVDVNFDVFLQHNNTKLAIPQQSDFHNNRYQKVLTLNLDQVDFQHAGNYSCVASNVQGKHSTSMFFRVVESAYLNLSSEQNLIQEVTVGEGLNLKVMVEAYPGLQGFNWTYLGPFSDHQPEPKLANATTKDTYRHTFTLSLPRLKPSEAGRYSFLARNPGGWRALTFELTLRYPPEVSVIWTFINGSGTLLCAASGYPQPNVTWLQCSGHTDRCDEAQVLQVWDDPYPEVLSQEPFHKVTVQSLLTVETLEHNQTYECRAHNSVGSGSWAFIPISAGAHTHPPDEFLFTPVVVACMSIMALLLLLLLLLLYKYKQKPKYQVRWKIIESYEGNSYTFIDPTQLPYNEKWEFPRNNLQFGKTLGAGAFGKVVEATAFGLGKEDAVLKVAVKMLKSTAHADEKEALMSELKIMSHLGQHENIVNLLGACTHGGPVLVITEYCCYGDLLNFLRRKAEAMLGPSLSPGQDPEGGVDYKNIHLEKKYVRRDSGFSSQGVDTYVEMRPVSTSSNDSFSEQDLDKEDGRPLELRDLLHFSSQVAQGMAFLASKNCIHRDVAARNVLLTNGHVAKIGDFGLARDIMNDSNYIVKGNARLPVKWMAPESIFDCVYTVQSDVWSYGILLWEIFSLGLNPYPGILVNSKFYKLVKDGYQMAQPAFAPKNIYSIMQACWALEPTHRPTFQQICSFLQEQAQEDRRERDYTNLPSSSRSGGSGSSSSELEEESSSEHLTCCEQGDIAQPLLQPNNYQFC
Below: a set of entries, each annotated with reported IC50.

Known results for molecules:
# return recorded IC50 for entry CCCn1cc(NCC(F)(F)F)c(C(=O)Nc2ccc(Oc3ccnc4cc(OC)c(OC)cc34)cn2)n1 < 0.5 µM

# return recorded IC50 for entry CNCCn1cc(OCC(F)(F)F)c(C(=O)Nc2ccc(Oc3ccnc4cc(OC)c(OC)cc34)nn2)n1 ≥ 1 µM

# return recorded IC50 for entry COc1cc2nccc(Oc3ccc(NC(=O)c4nn(C5CCN(C)C5)cc4OCC(F)(F)F)c(F)c3)c2cc1OC (stereo not drawn) ≥ 1 µM

# return recorded IC50 for entry COc1cc2nccc(Oc3ccc(NC(=O)c4nn(CCOC5CC5)cc4OCC(F)(F)F)cc3C)c2cc1OC < 0.5 µM

# return recorded IC50 for entry COc1cc2nccc(Oc3ccc(NC(=O)c4nn(CC(C)C)cc4OCC(F)(F)F)nn3)c2cc1OC 0.5 to 1 µM

Next:
# return recorded IC50 for entry CNCCn1cc(OCC(F)(F)F)c(C(=O)Nc2ccc(Oc3ccnc4cc(OC)c(OC)cc34)c(C)c2)n1 ≥ 1 µM

# return recorded IC50 for entry COc1cc2nccc(Oc3ccc(NC(=O)c4nn(C5CCOC5)cc4OCC(F)(F)F)cc3)c2cc1OC (stereo not drawn) ≥ 1 µM

# return recorded IC50 for entry COc1cc2nccc(Oc3ccc(NC(=O)c4nn(CC(C)O)cc4OCC4CCC4)nc3)c2cc1OC (stereo not drawn) 0.5 to 1 µM

# return recorded IC50 for entry COc1cc2nccc(Oc3ccc(NC(=O)c4nn(CC5COC5)cc4OCC(F)(F)F)c(F)c3)c2cc1OC ≥ 1 µM

# return recorded IC50 for entry COc1cc2nccc(Oc3ccc(NC(=O)c4nn(C5CCN(C)C5)cc4OCC(F)(F)F)cc3)c2cc1OC (stereo not drawn) ≥ 1 µM

# return recorded IC50 for entry COc1cc2nccc(Oc3ccc(NC(=O)c4nn(C5CCOC5)cc4OCC(F)(F)F)cc3F)c2cc1OC (stereo not drawn) ≥ 1 µM

# return recorded IC50 for entry COc1cc2nccc(Oc3ccc(NC(=O)c4nn(CCOC5CC5)cc4OCC(F)(F)F)cn3)c2cc1OC ≥ 1 µM

# return recorded IC50 for entry COCCn1cc(OCC(F)(F)F)c(C(=O)Nc2ccc(Oc3ccnc4cc(OC)c(OC)cc34)cn2)n1 < 0.5 µM

Values from patent US12162858B2
